Organism: Rattus norvegicus
Assay: DrugMatrix - Regimen: Daily Repeat
Type: toxicity, organism-based, Sprague-Dawley
Design: regimen Daily Repeat, gender Male, age 6-8 weeks
Conditions: in vivo, po, 0 mg/kg, 72 h, tissue Blood, route oral GAVAGE, dose level Control, time 3 day, vehicle .5 % CMC
property: PLATELET COUNT (x10E3/uL)
One number for each entry, in x10E3/uL.

molecule | obsValue
CCCN1C[C@H](CSC)C[C@@H]2c3cccc4[nH]cc(c34)C[C@H]21 [PERGOLIDE] | 1184.67

// batch mode: one PLATELET COUNT value per listed entry
1. O=C(CCCN1CC=C(n2c(=O)[nH]c3ccccc32)CC1)c1ccc(F)cc1 [DROPERIDOL]
2. CCOP(=S)(OCC)Oc1nc(Cl)c(Cl)cc1Cl [CHLORPYRIFOS]
3. N=C(N)NCCN1CCCCCCC1 [GUANETHIDINE]
4. ClC(Cl)Br [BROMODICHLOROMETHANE]
5. CCCCc1oc2ccccc2c1C(=O)c1cc(I)c(OCCN(CC)CC)c(I)c1 [AMIODARONE]

1: 1217.17; 2: 1204.5; 3: 1074.83; 4: 1122.17; 5: 1068.8

Hello, the source for this data is ChEMBL document CHEMBL3885881, in case you need it.
